# System: U251 CNS
# assaySummary: NCI tumour cell line growth inhibition, 48 h
recordedMetric: TGI

Here's what some known entries look like.
>  <compound>
Cc1ccccc1C(=O)Oc1ccc(Oc2ccccc2)cc1

>  <observed>
> 100 µM

$$$$
>  <compound>
CN(C)CCNc1ccc([N+](=O)[O-])c2nc3ccccc3c(N)c12

>  <observed>
> 10 µM

$$$$
>  <compound>
CCC1CC2CN3CCc4c([nH]c5c(-c6c(OC)ccc7c8c([nH]c67)[C@]6(C(=O)OC)CC7CC(CC)C6N(CC8)C7)c(O)ccc45)[C@](C(=O)OC)(C2)C13 (some centres not stated)

>  <observed>
25.7 µM

$$$$
>  <compound>
COc1ccc(C(O)CNC(=O)c2ccccc2)cc1 (configuration not stated)

>  <observed>
> 100 µM

$$$$

Input line: Give recorded TGI with U251 CNS for the following compound: CC(C)C(=O)N[C@@H](C)C(=O)N(Cc1ccc2ccccc2c1)N=O
Output line: > 100 µM

Input line: Given the entry O=C1C2C=CC1C1C(=O)OC(=O)C21 (configuration not stated) , what TGI was observed with U251 CNS?
Output line: > 100 µM

Input line: Give U251 CNS TGI for O=C1CCCC/C1=C/C=C/c1ccccc1
Output line: > 100 µM

Input line: Lab note: need TGI with U251 CNS for entry COC(=O)NCCc1[nH]nc2c1C(=O)C=C(Nc1ccccc1)C2=O , please look it up.
Output line: 42.2 µM

Input line: Form entry - test system: U251 CNS; read-out: TGI; compound: Cc1cc2[nH]c3c(C#N)c(-c4ccccc4)c(N=Nc4cccc(C(F)(F)F)c4)c(=O)n3c2cc1C
Output line: > 100 µM
